Each recorded value in this set is attributed to patent US20150232562A1.

Target: T1, recombinant human ErbB2/Fc chimera (human, UniProt P04626 23-652)
T1 construct: bought from R&D Systems; also called rhErbB2-Fc; rhErb2-Fc; Fc part of the bought chimera not given; not described
Test: ELISA, coated ErbB2/Fc
REPORTED ENDPOINT: binding result

Some binders with known binding result results, for comparison:
BINDER | RECORDED RESULT
12E33/1-119 (VHH, C-term myc-His6 tag) VHH: EVQLVESGGGMVQAGGSLRLSCAASGLTLSNYGMGWFRQAPGKEREFVSSINWSGTHTYDADFVKGRFIISRDNAKNTVYLQINSLKPEDTAVYYCAAGGWGTGRYNYWGQGTQVTVSS | binds
14C6 (VHH, C-term myc-His6 tag) VHH: EVQLVESGGGSVQAGGSLRLSCVASEGTFSSYGMGWFRQAPGKERAFVATINWSGVTAYADSVKGRFTISRDNAKKTVYLQMNSLKPEDTAVYYCATDTYGSGSSLMNEYDYWGQGTQVTVSS | binds
21A111/1-124 (VHH, C-term myc-His6 tag) VHH: EVQLVESGGGLVQAGGSLKLSCAVSGRTIVPYTMAWFRQAPGKEREFVAVTRSGGTTFYADSAKGRFTIARDDAKNTVYLQMNSLKPEDTAVYYCALATAYRTNYSSRDKYDYWGQGTQVTVSS | binds
14B10 (VHH, C-term myc-His6 tag) VHH: EVQLVESGGGLVQAGGSLRLSCAVNSRTFSSYGMGWFRQAPGKEREFVATINWSGVTAYADSIKGRFTISRDNAKETVYLQMNSLKPDDTGVYYCAAETYGSGSSLMSEYDYWGQGTQVTVSS | binds

Respond only with binding result recorded for 21A81/1-122 (VHH, C-term myc-His6 tag) VHH: EVQLVESGGGLAQAGGSLRLSCAVFGRSRYGMAWFRRAPGKEREFVAGIAWNGASIGSADSVRGRFTISRDNSENTVYFEMGSLKPEDTAVYYCAICRISWCAGAESDYGYWGQGTQVTVSS binds

Respond only with binding result recorded for 30D10 (VHH, C-term myc-His6 tag) VHH: EVQLVESGGGLVQAGGSLTLSCTASETTVRIRTMAWYRQPPGNQREWVATIGSNGFATYPDSVKGRFTISRDNAKNTVYLQMNSLKPEDTAVYYCRDINRDIWGQGSQVTVSS binds

Respond only with binding result recorded for 118N121_A8_2_OK/1-124 (VHH, C-term myc-His6 tag) VHH: EVQLVESGGGLVQAGGSLTLSCVISGLTLESHAMGWFRQAPGEEREFVATIRWSGSATFYSDSVKGRFTISRDNAKNTVYLQMNSLKPEDTAVYYCAARKIYRSLSYYGDYDSWGQGTQVTVSS binds

Respond only with binding result recorded for 12C111/1-123 (VHH, C-term myc-His6 tag) VHH: EVQLVESGGGLVQAGGSLRLSCAVSGLTFSSYAMGWFRQAPGKVREFVATISRSGGRTSYADSVKGRFIVSRDNAKNTADLQMNDLKPEDTAVYYCGASKWYGGFGDTDIEYWGQGTQVTVSS binds

Respond only with binding result recorded for 11B61/1-120 (VHH, C-term myc-His6 tag) VHH: EVQLVESGGGLVQAGGSLRLSCAASGRTSSGYGMGWFRQAPGKEREFVAAVGWYGSTYFADSVKGRFTIYRDNAQNTMYLQMNSLKPEDTAVYYCAASSSLATISQPSSWGQGTQVTVSS binds

Respond only with binding result recorded for 13G111/1-123 (VHH, C-term myc-His6 tag) VHH: EVQLVESGGGLVQAGGSLRLSCAASGRTFSSYAMGWFRQAPGKERAFVAAIRWSGGNTYYADSVKGRFTISRDNAKNTVYLQMNSLKPEDTAVYYCAADTFTLSTLSHEYDYWGQGTQVTVSS binds
